Experiment: Liver microsomal stability, dog
Type: in vitro ADME
Conditions: pH 7.4; dog liver microsomes, 0.5 mg/mL protein, 1 μM compound, NADPH; >80% remaining at 45 min denoted >140; read-out: Liver Microsomal Stability: t1/2 (min); dog
For each entry below, report its half-life value.
Please don't drop the unit; write it after the number.

half-life measured on CC(C)(C)n1cc(C(=O)N[C@H]2N=C(c3ccccc3)c3ccccc3NC2=O)c(-c2ccc(NC3CC3)nc2F)n1 [Example 29] = 44 min

half-life measured on CN1CCC(n2ncc(C(=O)N[C@H]3N=C(c4ccccc4)c4cccc(F)c4NC3=O)c2-c2ccc(NC3CC3)nc2F)CC1 [Example 57] = 175 min

half-life measured on CCn1ncc(C(=O)N[C@H]2N=C(c3ccccc3)c3ccccc3NC2=O)c1-c1ncc(NC)cc1F [Example 38] = 48.6 min

half-life measured on O=C(N[C@H]1N=C(c2ccccc2)c2cccc(F)c2NC1=O)c1cn(C2CCOCC2)nc1-c1ccc(NC2CC2)nc1F [Example 32] = 331 min

The reported measurements were obtained from patent US20220409629A1.
